Below, each entry is listed alongside its reported heart rates at 12 h.
Tested on: spontaneously hypertensive rats
Assay: Acute antihypertensive effects in conscious spontaneously hypertensive rats
Type: in vivo
Settings: 12 h; po mg/kg: compound 1 3, pinacidil 3, nifedipine 10, bisoprolol 60, captopril 40; means ± SD, 9-13 rats; in bpm (unit assumed)
Source text: Biological activity experiment 2. The acute antihypertensive effects of compound 1 in conscious spontaneously hypertensive rats. The methods of biological activity experiment 2 were described by Long Chao-Liang et al: Long Chao-Liang, Wang Hai, Xiao Wen-Bin. Effects of pinacidil on, hypertensive vascular remodeling. Chin J Pharmacol Toxicol 1997; 11(1):42-46.
In your answer, state the number alone without any accompanying words.

> print(dat)
                                   compound                target.under.test    property.measured  assay.result
1          C[C@H](CS)C(=O)N1CCC[C@H]1C(=O)O  spontaneously hypertensive rats  heart rates at 12 h           355
2  CC(C)NCC(O)COc1ccc(COCCOC(C)C)cc1 (centres unmarked)  spontaneously hypertensive rats  heart rates at 12 h           341
3                        CC(C)NC(C)(C)C(C)C  spontaneously hypertensive rats  heart rates at 12 h           413
4  CC(N/C(=N\C#N)Nc1ccncc1)C(C)(C)C (centres unmarked)  spontaneously hypertensive rats  heart rates at 12 h           352

Pending compound:
Lookup: Give a short answer stating reported heart rates at 12 h for COC(=O)C1=C(C)NC(C)=C(C(=O)OC)C1c1ccccc1[N+](=O)[O-] .
Found: 365
